Recorded Faecal elimination 0-72 hours (Faeces) for the following molecules
assay: Elimination of the molecules: cumulative urinary and faecal excretion 0-72 hours; format: in vivo, mouse; settings: cumulative excretion 0-72 hours, faeces, mice in metabolic cages
Structures can show the parent of a compound that is named as a salt.
Give the value in % but do not write % after it.

Sample CCCN(CCC)CCCCNC(=O)c1cnc2cc(I)ccc2n1 [compound 144, dihydrochloride] — what was its Faecal elimination 0-72 hours (Faeces)?
34.8

Now consider `CCN(CC)CCNC(=O)c1ccc2cncc(I)c2n1.Cl.Cl` .
29.4

Now try `CCN(CC)CCNC(=O)c1cnc2cc(I)ccc2n1.Cl.Cl` .
18.0

Proceed to CCN(CC)CCNC(=O)c1cc2cc(I)ccc2[nH]1 [compound 10, hydrochloride]
61.7

Cool, now CCCN(CCC)CCCCNC(=O)c1ccc2cc(I)ccc2n1 [compound 49, dihydrochloride]
19.9

Try the molecule CCN(CC)CCNC(=O)c1ccc2cc(I)ccc2c1 [compound 3, hydrochloride]
26.7

Try the molecule `CCN(CC)CCNC(=O)c1ccc2cc(I)ccc2n1.Cl.Cl`
11.4

Another molecule to look at: CCN(CC)CCNC(=O)c1c[nH]c2ccc(I)cc2c1=O [compound 35, dihydrochloride]
69.2

# repeat for `CCN(CC)CCNC(=O)c1cc2c(I)cccc2s1.Cl`
46.7

###

tested on: grafted B16 F0 murine melanoma tumour; assay: Biodistribution of the ^125I-labelled molecules in the melanoma-bearing mouse (autoradiography of whole-body sections); conditions: 1 H after i.v. administration, ^125I-labelled compound
Structures can show the parent of a compound that is named as a salt.
Quick reference: Concentration of radioactivity, blood (measured in the heart cavity), Mean of the listed items.

Param item = `CCN(CC)CCNC(=O)c1nc2ccc(I)cc2[nH]1.Cl.Cl` ; retrieve measured Concentration of radioactivity, blood (measured in the heart cavity), Mean.
3.31 % ID/g

CCN(CC)CCNC(=O)c1cc2cc(I)ccc2[nH]1 [compound 10, hydrochloride] , same question.
1.60 % ID/g

Again, but for CCN(CC)CCNC(=O)c1nc2ccccn2c1I [compound 16, dihydrochloride]
2.20 % ID/g

Now give it for `CCN(CC)CCNC(=O)c1cc2c(I)cccc2s1.Cl` too.
1.37 % ID/g

Query CCN(CC)CCNC(=O)c1ccc(I)nc1 [compound 7, dihydrochloride] next
6.67 % ID/g

Another compound: CCN(CC)CCNC(=O)c1ccc2cc(I)ccc2c1 [compound 3, hydrochloride]
2.97 % ID/g

Follow-up entry: `CCN(CC)CCNC(=O)c1ccc2cc(I)ccc2n1.Cl.Cl`
7.01 % ID/g

###

system: grafted B16 F0 murine melanoma tumour; test: Biodistribution of the ^125I-labelled molecules in the melanoma-bearing mouse (autoradiography of whole-body sections); conditions: liver; 3 H
Counter-ions that a name gives are not always drawn.
Parameter Biodistribution, Mean, liver: see the listing below.
// return a plain number; no unit text

Worked examples follow.
COMPOUND	Biodistribution, Mean, liver
CCN(CC)CCNC(=O)c1cc2c(I)cccc2cn1 [compound 39, dihydrochloride]	2.02
CCN(CC)CCNC(=O)c1ccc2cncc(I)c2n1.Cl.Cl	2.27
CCN(CC)CCNC(=O)c1cccc2cc3cc(I)ccc3nc12 [compound 111, dihydrochloride]	3.62

Entry CCCN(CCC)CCCCNC(=O)c1ccc2cc(I)ccc2n1 [compound 49, dihydrochloride] has what Biodistribution, Mean, liver?
7.77

Try this compound too: `CCN(CC)CCNC(=O)c1cnc2cc(I)ccc2n1.Cl.Cl`
8.87

Then what about the compound CCN(CC)CCNC(=O)c1c[nH]c2ccc(I)cc2c1=O [compound 35, dihydrochloride] ?
1.84
